Reference source: paper PMC6480966

I'd appreciate it if you could supply melting point values for the items below.

>  <compoundSmiles>
COCc1nc(-c2ccc3c(c2)OCO3)no1

>  <melting point>
56 to 57 °C

$$$$
>  <compoundSmiles>
O=C(NN=Cc1nc2ccccc2s1)c1cccs1

>  <melting point>
231 to 234 °C

$$$$
>  <compoundSmiles>
COC(=O)c1cc(-c2nc3cc([N+](=O)[O-])ccc3[nH]2)n2ccc3ccccc3c12

>  <melting point>
280 °C

$$$$
>  <compoundSmiles>
O=C(NN=Cc1nc2ccccc2s1)c1ccncc1

>  <melting point>
234 to 237 °C

$$$$
>  <compoundSmiles>
O=C(NN=Cc1ccc(Br)s1)c1ccco1

>  <melting point>
201 to 202 °C

$$$$

Fill in melting point for each of the 4 molecules listed.
1. NC(=NO)c1cccc([N+](=O)[O-])c1
2. Cc1csc(C=NNC(=O)c2ccco2)n1
3. COC(=O)c1c(C(=O)OC)c2c3ccccc3ccn2c1-c1nc2cc([N+](=O)[O-])ccc2[nH]1
4. COC(=O)c1c(C(=O)OC)c2ccccn2c1-c1nc2cc([N+](=O)[O-])ccc2[nH]1

Solution:
["182 to 184 °C", "121 to 124 °C", "162 °C", "234 °C"]

---

Would you kindly list CC50 at 48 h for each of these compounds?
assayMethodText: Cytotoxicity test on macrophages (resazurin)
Assay type: cell-based
assaySetup: mouse, RAW 264.7 macrophages; Table 2; 48 h incubation; read-out: Toxicity on RAW 264.7 Macrophages CC50 ± SD
Method: RAW 264.7 macrophages were grown with 5% CO2 in DMEM complete medium containing Dulbecco’s Modified Eagle’s Medium (DMEM) with 100 U/mL penicillin-streptomycin, and 10% HIFBS at 37 °C. RAW 264.7 macrophages were used for cytotoxicity testing. Cells were plated in 96-well microplates at a density of 2 × 10^4 cells per well. […] Cell viability was then monitored as above. […]

Would you please look over these solved cases?
>  <compound>
O=C(NN=Cc1ccc(Br)s1)c1cccs1 [Compound 2]

>  <CC50 at 48 h>
4.87 µM

$$$$
>  <compound>
O=C(NN=Cc1nc2ccccc2s1)c1ccncc1 [Compound 5]

>  <CC50 at 48 h>
> 100 µM

$$$$

Exercise: What value of measured CC50 at 48 h is listed for COC(=O)c1c(C(=O)OC)c2c3ccccc3ccn2c1-c1nc2cc([N+](=O)[O-])ccc2[nH]1 [Compound 12] ?
Solution: > 100 µM

---

assayMethodText: Cytotoxicity test on macrophages (resazurin)
Type: cell-based
assaySetup: mouse, RAW 264.7 macrophages; Table 3; 48 h incubation; read-out: Cytotoxicity on RAW 264.7 Macrophages CC50 ± SD
parameter: CC50 at 48 h (µM)
One number for each entry, in µM.

Exercise: // CC50 at 48 h lookup, key: C[C@@H]1[C@H](O)[C@@H](C)/C=C/C=C/C=C/C=C/C=C/C=C/C=C/[C@H](O[C@@H]2O[C@H](C)[C@@H](O)[C@H](N)[C@@H]2O)C[C@@H]2O[C@](O)(C[C@@H](O)C[C@@H](O)[C@H](O)CC[C@@H](O)C[C@@H](O)CC(=O)O[C@H]1C)C[C@H](O)[C@H]2C(=O)O [AmB, Amphotericin B, reference compound]
Solution: 5.36

---

So I've got a bunch of molecules here, and I need their CC50 at 48 h values.
assayMethodText: Cytotoxicity test on macrophages (resazurin)
Format: cell-based
assaySetup: mouse, RAW 264.7 macrophages; Table 2; 48 h incubation; read-out: Toxicity on RAW 264.7 Macrophages CC50 ± SD
One number for each entry, in µM.

>  <molecule>
Cc1csc(C=NNC(=O)c2ccco2)n1 [Compound 1]

>  <CC50 at 48 h, µM>
13.9

$$$$

Exercise: I am curious: what CC50 at 48 h value has been reported for O=C(NN=Cc1nc2ccccc2s1)c1cccs1 [Compound 4] ?
Solution: 16.3

---

Test system: Leishmania donovani LV9 intramacrophage amastigotes
assayMethodText: In vitro anti-leishmanial testing on intramacrophage amastigotes (RAW 264.7, Sybr Green I)
Type: cell-based
assaySetup: Leishmania donovani, RAW264.7; Table 2; RAW 264.7 macrophages, 48 h treatment; read-out: Leishmania donovani Intramacrophage Amastigotes Forms IC50 ± SD
pIC50: −log10 of the molar value.
Tag: label 1 if measured pIC50 is not below 5, label 0 if it is.

Before answering, review these 6 worked examples.
>  <compoundSmiles>
NC(=NO)c1cccc([N+](=O)[O-])c1

>  <label>
label 0

$$$$
>  <compoundSmiles>
COC(=O)c1c(C(=O)OC)c2c3ccccc3ccn2c1-c1nc2cc([N+](=O)[O-])ccc2[nH]1

>  <label>
label 0

$$$$
>  <compoundSmiles>
COCc1nc(-c2ccc3c(c2)OCO3)no1

>  <label>
label 0

$$$$
>  <compoundSmiles>
Cc1csc(C=NNC(=O)c2ccco2)n1

>  <label>
label 1

$$$$
>  <compoundSmiles>
O=C(NN=Cc1nc2ccccc2s1)c1ccncc1

>  <label>
label 0

$$$$
>  <compoundSmiles>
O=C(NN=Cc1ccc(Br)s1)c1ccco1

>  <label>
label 0

$$$$

Exercise: Does O=C(NN=Cc1ccc(Br)s1)c1cccs1 have a reported pIC50 of at least 5?
Solution: label 1

---

System: Leishmania donovani LV9 intramacrophage amastigotes
assayMethodText: In vitro anti-leishmanial testing on intramacrophage amastigotes (RAW 264.7, Sybr Green I)
Format: cell-based
assaySetup: CC50 RAW 264.7 / IC50 intramacrophage amastigotes
parameter: SI = CC50/IC50 Intramacro. Amas.

Observe how each entry below is paired with its result.
>  <molecule>
COCc1nc(-c2ccc3c(c2)OCO3)no1 [Compound 8]

>  <SI = CC50/IC50 Intramacro. Amas.>
>1.9

$$$$
>  <molecule>
O=C(NN=Cc1nc2ccccc2s1)c1ccncc1 [Compound 5]

>  <SI = CC50/IC50 Intramacro. Amas.>
>1.8

$$$$

Exercise: Form field - read-out: SI = CC50/IC50 Intramacro. Amas.; system: Leishmania donovani LV9 intramacrophage amastigotes; submitted item: NC(=NO)c1cccc([N+](=O)[O-])c1 [Compound 7, 3-Nitrobenzamidoxime]
Solution: >2.1

---

assayMethodText: Cytotoxicity test on macrophages (resazurin)
Type: cell-based
assaySetup: mouse, RAW 264.7 macrophages; Table 2; 48 h incubation; read-out: Toxicity on RAW 264.7 Macrophages CC50 ± SD
parameter: CC50 at 48 h

>  <compoundSmiles>
NC(=NO)c1cccc([N+](=O)[O-])c1

>  <result>
> 100 µM

$$$$

# per-item lookup of CC50 at 48 h; items listed below
1. O=C(NN=Cc1ccc(Br)s1)c1ccco1
2. COCc1nc(-c2ccc3c(c2)OCO3)no1

Solution:
1: > 100 µM; 2: > 100 µM
